SYSTEM_TESTED: T1, Boi2, P39969
T1 sequence (P39969 32-116, looked up): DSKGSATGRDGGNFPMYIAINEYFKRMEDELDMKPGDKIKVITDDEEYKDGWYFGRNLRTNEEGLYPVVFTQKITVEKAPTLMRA
ASSAY_COMMENT: SPOT array
PARTICULARS: median of control spots 1161
MEASUREMENT_NAME: SPOT intensity

BINDER: ISRRRLPVIMHRLKM
SPOT intensity: 1

P: HHNRRKPLEVYFKAT
Q: AGKRRLPLVRFKASD
R: ATKSASPTLPTRRSR
Q: Ascending by SPOT intensity, please: list the binders accordingly. Answer format: list of labels, ordered as asked.
A: R, Q, P
(R: 0, Q: 1, P: 2)

a: QLMKNLPKIPLLNDI
b: AIPPPVPNRPGGTTN
c: GKKVRPLLVLLLSRA
d: TIRRRAPLSLLESHT
Q: Ascending by SPOT intensity, please: list the binders accordingly. Answer format: list of labels, ordered as asked.
A: b, a, d, c
(b: 0, a: 1, d: 2, c: 4)

I: RPVPRRPSQPLNTLS
II: RRRIAYPFYPFKKLG
III: SKIRPTPRKPSRMAT
IV: NMLSRPRLAKLPSIR
Q: Ascending by SPOT intensity, please: list the binders accordingly. Answer format: list of labels, ordered as asked.
A: II, I, IV, III
(II: 0, I: 1, IV: 2, III: 3)
